// Emax lookup, one value per entry
tested.on: hOTR (Homo sapiens)
Construct: expressed in transfected cells
Sequence (P30559 whole entry): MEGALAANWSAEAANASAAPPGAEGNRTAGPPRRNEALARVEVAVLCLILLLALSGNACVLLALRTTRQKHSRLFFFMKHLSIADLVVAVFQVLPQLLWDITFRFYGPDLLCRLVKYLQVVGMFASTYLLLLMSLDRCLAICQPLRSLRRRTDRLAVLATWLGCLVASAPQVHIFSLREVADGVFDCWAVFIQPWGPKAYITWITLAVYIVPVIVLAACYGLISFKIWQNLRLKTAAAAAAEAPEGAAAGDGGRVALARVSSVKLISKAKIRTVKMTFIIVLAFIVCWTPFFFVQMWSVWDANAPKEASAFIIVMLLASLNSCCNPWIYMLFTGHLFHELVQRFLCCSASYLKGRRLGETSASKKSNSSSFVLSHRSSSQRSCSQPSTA
experimental.protocol: IP-One accumulation assay, agonist function, HEK293 cells expressing hOTR
Type: cell-based
measurement.context: HEK293, relative to the effect of OT; read-out: OTR Emax ± SEM
Numbered stars: 1 amine (or outer) side, 2 acyl side, 3 side chain; on linkers, the order of the positions; unused ones are H or OH. Bridge positions count the residues as written; N and C are the ends. Square brackets hold non-standard residues; d marks the D form. Peptide text beside a SMILES is read from it. Phe(4-(Z)-phenylazo) = N[C@@H](Cc1ccc(/N=N\c2ccccc2)cc1)C(=O)O; AMPB(E) = O=C(c1ccc(/N=N/c2ccc(CN[*:1])cc2)cc1)[*:2]; X1 = O=C([C@H](Cc1ccc(/N=N/c2ccccc2)cc1)N[*:1])[*:2]; X2 = O=C(c1ccc(/N=N\c2ccc(CN[*:1])cc2)cc1)[*:2]
measure: Emax (%)

{"molecule": "CC[C@H](C)[C@@H]1NC(=O)[C@H](Cc2ccc(O)cc2)NC(=O)[C@@H](N)CSSC[C@@H](C(=O)N[C@@H](Cc2ccc(/N=N\\c3ccccc3)cc2)C(=O)N[C@@H](CC(C)C)C(=O)NCC(N)=O)NC(=O)[C@H](CC(N)=O)NC(=O)[C@H](CCC(N)=O)NC1=O [Z-9] (H-CYIQNC[Phe(4-(Z)-phenylazo)]LG-NH2; disulfide 1-6)", "tested.on": "hOTR (Homo sapiens)", "reading.unit": "%", "measured.result": 90}
{"molecule": "CC[C@H](C)[C@@H]1NC(=O)[C@H](Cc2ccc(/N=N\\c3ccccc3)cc2)NC(=O)[C@@H](N)CSSC[C@@H](C(=O)N2CCC[C@H]2C(=O)N[C@@H](CC(C)C)C(=O)NCC(N)=O)NC(=O)[C@H](CC(N)=O)NC(=O)[C@H](CCC(N)=O)NC1=O [Z-8] (H-C[Phe(4-(Z)-phenylazo)]IQNCPLG-NH2; disulfide 1-6)", "tested.on": "hOTR (Homo sapiens)", "reading.unit": "%", "measured.result": 35}
{"molecule": "CC[C@H](C)[C@@H]1NC(=O)[C@H](Cc2ccc(O)cc2)NC(=O)[C@@H](N)CSSC[C@@H](C(=O)NCc2ccc(/N=N/c3ccc(C(=O)NCC(N)=O)cc3)cc2)NC(=O)[C@H](CC(N)=O)NC(=O)[C@H](CCC(N)=O)NC1=O [E-10] (H-CYIQNC[AMPB(E)]G-NH2; disulfide 1-6)", "tested.on": "hOTR (Homo sapiens)", "reading.unit": "%", "measured.result": 80}
{"molecule": "CC[C@H](C)[C@@H]1NC(=O)[C@H](Cc2ccc(O)cc2)NC(=O)[C@@H](N)CSSC[C@@H](C(=O)NCc2ccc(/N=N\\c3ccc(C(=O)N[C@@H](CC(C)C)C(=O)NCC(N)=O)cc3)cc2)NC(=O)[C@H](CC(N)=O)NC(=O)[C@H](CCC(N)=O)NC1=O [Z-11] (H-CYIQNC[X2]LG-NH2; disulfide 1-6)", "tested.on": "hOTR (Homo sapiens)", "reading.unit": "%", "measured.result": 86}
{"molecule": "CC[C@H](C)[C@@H]1NC(=O)[C@H](Cc2ccc(O)cc2)NC(=O)[C@@H](N)CSSC[C@@H](C(=O)N[C@@H](Cc2ccc(/N=N/c3ccccc3)cc2)C(=O)N[C@@H](CC(C)C)C(=O)NCC(N)=O)NC(=O)[C@H](CC(N)=O)NC(=O)[C@H](CCC(N)=O)NC1=O [E-9] (H-CYIQNC[X1]LG-NH2; disulfide 1-6)", "tested.on": "hOTR (Homo sapiens)", "reading.unit": "%", "measured.result": 89}
